inhibition overview
# ASSAY_EXPLANATION: HepG2 cytotoxicity, primary screen, cytotoxicity control for P. falciparum antimalarial project, cell-based, ATP luminescence (AID 2303);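 note: 0% = DMSO wells and 100% = digitonin-killed cells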
# STATED_CONDITIONS: HepG2 viability, 24-48 h, at 10 µM, active compounds read high
Give just the number in %; leave the unit off.

- COMPOUND: "Cc1cc(-c2ccc3occ(CCN)c3c2)cnc1N"
  MEASURED_ENDPOINT: "inhibition"
  MEASURED_VALUE: -5
- COMPOUND: "COc1nc2c(N3CCN(CCNCc4ccc5c(n4)NC(=O)CS5)CC3)ccnc2cc1F"
  MEASURED_ENDPOINT: "inhibition"
  MEASURED_VALUE: 18
- COMPOUND: "O=C(CCCCCCc1ccccc1)Nc1ccc2nc3c(c(NCc4ccccc4)c2c1)CCCC3"
  MEASURED_ENDPOINT: "inhibition"
  MEASURED_VALUE: 19
- COMPOUND: "CCOC(=O)c1cccc(NC(=O)Nc2cc(C)nc3ccccc23)c1"
  MEASURED_ENDPOINT: "inhibition"
  MEASURED_VALUE: 14
- COMPOUND: "CC(C)NCc1ccc(-c2ccc(-c3nc4ccc(F)cc4[nH]3)cc2)cc1"
  MEASURED_ENDPOINT: "inhibition"
  MEASURED_VALUE: 14

In one line, give reported inhibition of the entry NC(=O)c1ccsc1NC(=O)CNC(c1ccccc1)c1ccccc1 .
8

In one line, give reported inhibition of the entry COc1ccc2nccc([C@@H](O)CN3CCC(NCc4cc5ccccc5s4)CC3)c2c1 .
8

In one line, give reported inhibition of the entry CCn1c(Sc2ccc(C#N)c([N+](=O)[O-])c2)nnc1-c1cc(OC)cc(OC)c1 .
7

In one line, give reported inhibition of the entry Cc1cc(NC2CCN(CC3CCCCC3)C2)nc(Nc2ccc(Br)cc2)n1 (centres undefined) .
22

----------
# ASSAY_EXPLANATION: antimalarial activity against Dd2 strain (AID 2302);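 note: 0% = DMSO untreated growth and 100% = chloroquine plus artemisinin killed control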
# STATED_CONDITIONS: P. falciparum Dd2 in RBCs, LDH growth readout, 72 h; at 2 µM; active compounds read high
Respond with yes for growth inhibition values of 80% and above, no for values below.

Example entries and their recorded answers appear below.
- STRUCTURE_NOTATION: "N#Cc1ccc(NC(=Nc2ccccc2Br)N(C2CCCCC2)C2CCCCC2)c(O)c1"
  CAT: "yes"
- STRUCTURE_NOTATION: "NC1=NC(c2ccccc2)(c2ccccc2)C(=O)N1CCCCc1ccccn1"
  CAT: "no"
- STRUCTURE_NOTATION: "COc1ccc(CNc2ccnc3cc(OC)ccc23)cc1"
  CAT: "no"
- STRUCTURE_NOTATION: "Cc1[nH]nc2cc(F)c(-c3cc(OC[C@@H](N)Cc4ccccc4)cnc3-c3ccoc3)cc12"
  CAT: "no"
- STRUCTURE_NOTATION: "CN1CCN(c2cc3c(cc2Cl)CCN3C(=O)Cc2ccc(Cl)c(NC(=O)Nc3cccc(C#N)c3)c2)CC1"
  CAT: "no"
- STRUCTURE_NOTATION: "COc1ccccc1C1CCN(CCCCNC(=O)c2ccc(/C=C/c3cc(Cl)cc(Cl)c3)cc2)CC1"
  CAT: "no"
- STRUCTURE_NOTATION: "CN1CC=C(c2csc3ccc(NC(=O)Nc4ccc(-c5ccncc5)c5ccccc45)cc23)CC1"
  CAT: "yes"

Dear colleague, could you confirm whether Cc1cccc2[nH]c(-c3ccc(-c4ccc(CNCCNC(=O)c5ccnn5C)cc4)cc3)nc12 has growth inhibition at or above 80%?
yes
